test system: M14 melanoma; experiment: NCI tumour cell line growth inhibition, 48 h
endpoint_label: TGI (µM)
One number for each entry, in µM.

Example entries and their recorded answers appear below.
COc1ccc(C(=O)/C=C/c2ccc(OCC#N)cc2)cc1OC; 37.3
CCN1CCN(CC(=O)Nc2nc3ccc(NCc4ccc(C)cc4)cc3s2)CC1; 2.19
Cc1ccc2c(n1)C(=O)C(Cl)=C(Nc1ccc(N3CCN(C)CC3)cc1)C2=O; 3.32

Now consider a different compound.
Please provide the recorded TGI for COc1ccc(/C=C/c2ccnc3ccccc23)cc1 , tested on M14 melanoma.
31.7

###

What TGI was measured for each of the following?
tested on: U251 CNS; assay: NCI tumour cell line growth inhibition, 48 h

COC(=O)c1c2c(c(C)[n+]([O-])c1C)C(=O)C=C(NCc1ccc(Br)cc1)C2=O; 2.46 µM
CC[C@@]1(OC(=O)C(N)CCC(=O)O)C(=O)OCc2c1cc1n(c2=O)Cc2cc3ccccc3nc2-1 (some centres not stated); 1.98 µM
N#Cc1ccc(N2Cc3cc(Cl)ccc3OC3=C2C(=O)N(Cc2ccc(F)cc2)C3=O)cc1; 1.68 µM

I'm hoping you can list TGI for every compound here, please.
1. NS(=O)(=O)c1cccc(-c2cc3ccncc3cc2OCc2ccccc2)c1
2. CCCC(=O)n1[nH]c(=O)n(C(C)(C)C)c1=O
3. Cc1ccc(S(=O)(=O)C(C#N)c2nc3ccccc3nc2N2CCOCC2)cc1 (configuration not stated)
4. N#Cc1c(N)nc2c(N=Nc3ccccc3)c(N)nn2c1Nc1ccccc1
5. O=S(=O)(CC(O)C(Cl)(Cl)Cl)NNc1ccccc1 (configuration not stated)
6. O=C1NC2(NC(=O)C1=O)Nc1ccccc1S2

1: > 25 µM; 2: > 100 µM; 3: 35.8 µM; 4: 24.6 µM; 5: > 100 µM; 6: > 82.5 µM

I'm hoping you can list TGI for every compound here, please.
1. O=C(O)/C(=C/c1ccccc1[N+](=O)[O-])c1cccs1
2. CC(C)(C)C1CCC(CI)(N=[N+]=[N-])CC1 (configuration not stated)

["> 100 µM", "> 100 µM"]

I'm hoping you can list TGI for every compound here, please.
1. C/C(=C\CCc1ccsc1)CC/C=C(\C)CCCN1CCN(CCO)CC1
2. c1ccc(-c2sc(-c3ccccc3)c3c2C2CCC3C2)cc1
3. COC(=O)c1ccc(-n2c(C)nc(=O)c(-c3ccccc3)c2C)cc1
4. Nc1cccc2c1CN(C1CCC(=O)NC1=O)C2=O (configuration not stated)
5. S=C(Nc1ccc(Cl)cc1)SC1CCCCC1

7.28 µM
> 100 µM
> 100 µM
> 100 µM
> 100 µM

I'm hoping you can list TGI for every compound here, please.
1. Cc1ccc(-n2nnc3c(sc4ccccc43)c2=O)cc1
2. c1csc(-c2ccc(-c3ccsc3)s2)c1
3. O=C1CCCC(=O)N1n1c(Cc2ccc(Cl)cc2)n[nH]c1=O

["19 µM", "> 100 µM", "> 100 µM"]
